- Test system: MDA-MB-435
- protocolDetails: NCI tumour cell line growth inhibition, 48 h
Active and inactive are the calls of the source. No stated cut-off is given here; in the data, active = GI50 up to about 1.1 µM and inactive = higher. *1 amine or outer side, *2 acyl side, *3 side chain or, on linkers, in order; H or OH if unused. Where a SMILES comes first, the peptide text is derived from it. Bridges are numbered along the chain shown (N, C = ends). Roman numbers before positions name the chains, in order. [ ]: non-standard residue; d: D form. Actinocin(9to1) = Cc1c2oc3c(C)ccc(C(=O)[*:1])c3nc-2c(C(=O)[*:2])c(N)c1=O; Hyp = O=C(O)[CH]1C[CH](O)CN1; NMeV = CN[CH](C(=O)O)C(C)C; Sar = CNCC(=O)O
Response enum: active, inactive

Which outcome did this test record for the molecule CC(=O)c1cc2c(s1)C(=O)c1ccsc1C2=O ?
active

New cases:
Could you please tell me the result logged for CN1C(=O)[C@@H]2N(CSC2(C)C)C1=S in this assay?
inactive

Please state the recorded outcome for this molecule: NC(=O)CCC(NC(=O)c1c2ccccc2nc2ccccc12)C(=O)O (stereo not given)
inactive

Hi, sorry to bother you, what did the test record for COC(=O)C(CCC1C=CN(S(=O)(=O)c2ccc(C)cc2)C1)/N=C/c1ccccc1 (stereo not given) ?
inactive

Write down the call the test reported for this molecule. Item: Cc1c2oc3c(C)ccc(C(=O)NC4C(=O)NC(C(C)C)C(=O)N5CC(O)CC5C(=O)N(C)CC(=O)N(C)C(C(C)C)C(=O)OC4C)c3nc-2c(C(=O)NC2C(=O)NC(C(C)C)C(=O)N3CC(O)CC3C(=O)N(C)CC(=O)N(C)C(C(C)C)C(=O)OC2C)c(N)c1=O (stereo not given) (I: TV[Hyp][Sar][NMeV] / II: TV[Hyp][Sar][NMeV]; ester I:1-I:C, II:1-II:C; linker I:N-II:N via Actinocin(9to1); configuration not given here)
active

What was the test verdict on COC(=O)CC1(O)C=CC(=O)C=C1 ?
inactive
